Please provide measured IC50 for the entries that follow.
- STUDY_SYSTEM: LAT1 (hLAT1; LAT1/4F2hc) (Homo sapiens, UniProt Q01650)
- Sequence (Q01650 whole entry): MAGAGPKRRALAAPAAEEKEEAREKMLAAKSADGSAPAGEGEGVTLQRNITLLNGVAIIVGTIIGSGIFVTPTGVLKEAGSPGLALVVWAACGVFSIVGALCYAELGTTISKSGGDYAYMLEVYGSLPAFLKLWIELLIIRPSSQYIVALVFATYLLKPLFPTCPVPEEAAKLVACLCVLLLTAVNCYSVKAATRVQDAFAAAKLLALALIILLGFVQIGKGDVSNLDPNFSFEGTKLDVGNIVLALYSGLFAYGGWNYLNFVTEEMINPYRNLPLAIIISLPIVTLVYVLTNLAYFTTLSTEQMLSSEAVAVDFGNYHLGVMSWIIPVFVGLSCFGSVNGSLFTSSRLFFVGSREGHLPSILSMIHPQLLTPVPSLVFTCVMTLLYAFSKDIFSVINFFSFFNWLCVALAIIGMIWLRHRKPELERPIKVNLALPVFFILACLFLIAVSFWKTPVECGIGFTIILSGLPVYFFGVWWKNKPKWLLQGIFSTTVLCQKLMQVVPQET
- Sequence (P08195 103-630 partner): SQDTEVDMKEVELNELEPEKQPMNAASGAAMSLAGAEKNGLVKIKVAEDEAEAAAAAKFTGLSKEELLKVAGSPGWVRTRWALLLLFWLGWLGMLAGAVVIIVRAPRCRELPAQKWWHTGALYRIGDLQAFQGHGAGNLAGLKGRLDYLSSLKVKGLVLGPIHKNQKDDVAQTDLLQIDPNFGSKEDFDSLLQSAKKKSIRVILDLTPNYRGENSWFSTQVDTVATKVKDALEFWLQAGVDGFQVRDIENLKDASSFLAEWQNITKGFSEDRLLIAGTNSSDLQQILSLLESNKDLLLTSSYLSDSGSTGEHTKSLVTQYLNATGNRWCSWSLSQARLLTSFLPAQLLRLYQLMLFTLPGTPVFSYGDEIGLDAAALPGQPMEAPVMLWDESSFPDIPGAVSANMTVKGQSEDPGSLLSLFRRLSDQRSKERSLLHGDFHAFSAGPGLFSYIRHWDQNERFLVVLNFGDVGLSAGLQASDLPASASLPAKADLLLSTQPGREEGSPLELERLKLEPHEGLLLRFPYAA
- ASSAY_TEXT: cell-based
- Set-up: species or system TREx HEK-hLAT1
Include the unit after the number when you answer.

Give LAT1 (hLAT1; LAT1/4F2hc) (Homo sapiens, UniProt Q01650) IC50 for "N[C@@H](Cc1ccccc1)C(=O)O"
91.8 µM

Lab note: need IC50 for "N[C@@H](Cc1ccc(/N=N/c2ccccc2)cc1)C(=O)O" on LAT1 (hLAT1; LAT1/4F2hc) (Homo sapiens, UniProt Q01650), anyone have it?
16 µM

* * *

Field: pIC50. Provide a value for each of the molecules that follow.
- STUDY_SYSTEM: LAT1 (hLAT1; LAT1/4F2hc) (Homo sapiens, UniProt Q01650)
- ASSAY_TEXT: cis-inhibition of [3H]-gabapentin uptake, TREx HEK-hLAT1 cells
- Assay type: cell-based
Keep in mind that pIC50 stands for -log10 of concentration in molar terms.

Give the measured pIC50 of "N[C@@H](CNC(=O)OCC1c2ccccc2-c2ccccc21)C(=O)O" .
4.35

What value of pIC50 has been reported for the following molecule? NC(Cc1ccc(O)c(OCc2ccccc2)c1)C(=O)O (stereo not drawn)
4.20

Query: pIC50; subject: "N[C@@H](Cc1c[nH]c2ccc(OCc3ccccc3)cc12)C(=O)O"
4.93
